Target: LHRH rat pituitary receptor (Rattus norvegicus)
Construct: from tissue; host or cells: rat pituitary
Test: LHRH rat pituitary receptor binding (pKI)
Conditions: negative logarithm of the equilibrium dissociation constants, Table 1, read-out: receptor binding affinity (pKI) (converted)
A collection of molecules and their measured Ki
State just the number; it will be interpreted in nM.

CC[C@H]1OC(=O)[C@H](C)[C@@H](O[C@H]2C[C@@](C)(OC)[C@@H](O)[C@H](C)O2)[C@H](C)[C@@H](O[C@@H]2O[C@H](C)C[C@H](N(C)C3CCCC3)[C@H]2O)[C@](C)(OC)C[C@@H](C)C(=O)[C@H](C)[C@H]2N(CCc3cccc(Cl)c3)C(=O)O[C@]12C
2.75

# next molecule below
Value of Ki reported for the molecule CC[C@H]1OC(=O)[C@H](C)[C@@H](O[C@H]2C[C@@](C)(OC)[C@@H](O)[C@H](C)O2)[C@H](C)[C@@H](O[C@@H]2O[C@H](C)C[C@H](N(C)Cc3ccncc3)[C@H]2O)[C@](C)(OC)C[C@@H](C)C(=O)[C@H](C)[C@H]2N(CCc3ccc(Cl)cc3)C(=O)O[C@]12C is 10

----------
A collection of molecules and their measured Ki
Biological target: LHRH rat pituitary receptor (Rattus norvegicus)
Construct: from tissue; host or cells: rat pituitary
Assay: LHRH rat pituitary receptor binding (pKI)
Details: negative logarithm of the equilibrium dissociation constants, Table 1, read-out: receptor binding affinity (pKI) (converted)
State just the number; it will be interpreted in nM.

Worked examples, 2 molecules total:
CC[C@H]1OC(=O)[C@H](C)[C@@H](O[C@H]2C[C@@](C)(OC)[C@@H](O)[C@H](C)O2)[C@H](C)[C@@H](O[C@@H]2O[C@H](C)C[C@H](N(C)Cc3ccc(O)cc3)[C@H]2O)[C@](C)(OC)C[C@@H](C)C(=O)[C@H](C)[C@H]2N(CCc3ccc(Cl)c(Cl)c3)C(=O)O[C@]12C
9.55
CCCN(C)[C@H]1C[C@@H](C)O[C@@H](O[C@@H]2[C@@H](C)[C@H](O[C@H]3C[C@@](C)(OC)[C@@H](O)[C@H](C)O3)[C@@H](C)C(=O)O[C@H](CC)[C@@]3(C)OC(=O)N(CCc4ccc(F)c(F)c4)[C@@H]3[C@@H](C)C(=O)[C@H](C)C[C@@]2(C)OC)[C@@H]1O
0.0832

# next molecule below
Value of Ki reported for the molecule CC[C@H]1OC(=O)[C@H](C)[C@@H](O[C@H]2C[C@@](C)(OC)[C@@H](O)[C@H](C)O2)[C@H](C)[C@@H](O[C@@H]2O[C@H](C)C[C@H](N(C)CCCc3ccncc3)[C@H]2O)[C@](C)(OC)C[C@@H](C)C(=O)[C@H](C)[C@H]2N(CCc3ccc(F)c(Cl)c3)C(=O)O[C@]12C is 4.37

----------
Molecular target: LHRH rat pituitary receptor (Rattus norvegicus, UniProt P30969)
Construct: from tissue; host or cells: rat pituitary
Sequence (P30969 1-327): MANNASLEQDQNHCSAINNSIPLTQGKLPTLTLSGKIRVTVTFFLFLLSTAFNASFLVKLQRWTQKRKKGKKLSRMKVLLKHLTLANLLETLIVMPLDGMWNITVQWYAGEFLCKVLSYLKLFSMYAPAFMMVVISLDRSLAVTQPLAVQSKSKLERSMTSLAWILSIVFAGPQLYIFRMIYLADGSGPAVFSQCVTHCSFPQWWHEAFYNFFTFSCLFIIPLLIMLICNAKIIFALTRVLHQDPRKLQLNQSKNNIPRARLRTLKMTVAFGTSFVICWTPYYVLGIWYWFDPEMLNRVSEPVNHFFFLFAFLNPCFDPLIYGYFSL
Test: LHRH rat pituitary receptor binding (pKI)
Conditions: negative logarithm of the equilibrium dissociation constants, Table 1, read-out: receptor binding affinity (pKI) (converted)
readout label: Ki (nM)
State just the number; it will be interpreted in nM.

Worked examples, 2 compounds total:
CC[C@H]1OC(=O)[C@H](C)[C@@H](O[C@H]2C[C@@](C)(OC)[C@@H](O)[C@H](C)O2)[C@H](C)[C@@H](O[C@@H]2O[C@H](C)C[C@H](N(C)C(C)C)[C@H]2O)[C@](C)(OC)C[C@@H](C)C(=O)[C@H](C)[C@H]2N(CCc3ccc(F)c(Cl)c3)C(=O)O[C@]12C [Example 28]
0.324
CC[C@H]1OC(=O)[C@H](C)[C@@H](O[C@H]2C[C@@](C)(OC)[C@@H](O)[C@H](C)O2)[C@H](C)[C@@H](O[C@@H]2O[C@H](C)C[C@H](N(C)C3CCC3)[C@H]2O)[C@](C)(OC)C[C@@H](C)C(=O)[C@H](C)[C@H]2N(CC3(c4ccc(Cl)c(Cl)c4)CC3)C(=O)O[C@]12C [Example 11]
3.09

# next compound below
Value of Ki reported for the compound CCCN(C)[C@H]1C[C@@H](C)O[C@@H](O[C@@H]2[C@@H](C)[C@H](O[C@H]3C[C@@](C)(OC)[C@@H](O)[C@H](C)O3)[C@@H](C)C(=O)O[C@H](CC)[C@@]3(C)OC(=O)N(CCc4cccc(Cl)c4)[C@@H]3[C@@H](C)C(=O)[C@H](C)C[C@@]2(C)OC)[C@@H]1O [Example 25] is 4.17
